Biological target: acetylcholine receptor
Test: SPR, receptor immobilized, peptide 10 uM
Documented log10(Binding affinity (RU)) across a set of binders
QUANTITY: log10(Binding affinity (RU)) (log10 of the value in RU)

BINDER: KKPHR [5mer-793]
QUANTITY: log10(Binding affinity (RU))
ASSAY_VALUE: 1.28
--
BINDER: KADMK [5mer-1077]
QUANTITY: log10(Binding affinity (RU))
ASSAY_VALUE: 1.08
--
BINDER: RRWVCK [6mer-1-149]
QUANTITY: log10(Binding affinity (RU))
ASSAY_VALUE: 2.12
--
BINDER: KTPERK [6mer-2-818]
QUANTITY: log10(Binding affinity (RU))
ASSAY_VALUE: 1.11
--
BINDER: RTPAKR [6mer-2-882]
QUANTITY: log10(Binding affinity (RU))
ASSAY_VALUE: 1.18
--
BINDER: RCTAKK [6mer-2-822]
QUANTITY: log10(Binding affinity (RU))
ASSAY_VALUE: 1.11
--
BINDER: KNPIR [5mer-1065]
QUANTITY: log10(Binding affinity (RU))
ASSAY_VALUE: 1.26
--
BINDER: KRGQYK [6mer-1-164]
QUANTITY: log10(Binding affinity (RU))
ASSAY_VALUE: 2.16
--
BINDER: KFSVRR [6mer-2-819]
QUANTITY: log10(Binding affinity (RU))
ASSAY_VALUE: 1.36
--
BINDER: RMTERK [6mer-2-848]
QUANTITY: log10(Binding affinity (RU))
ASSAY_VALUE: 1.46
--
BINDER: RTCDR [5mer-774]
QUANTITY: log10(Binding affinity (RU))
ASSAY_VALUE: 1.40
--
BINDER: RKSLQK [6mer-1-188]
QUANTITY: log10(Binding affinity (RU))
ASSAY_VALUE: 2.09
--
BINDER: RPNMR [5mer-773]
QUANTITY: log10(Binding affinity (RU))
ASSAY_VALUE: 1.40
--
BINDER: KIHARK [6mer-2-825]
QUANTITY: log10(Binding affinity (RU))
ASSAY_VALUE: 1.04
--
BINDER: RRVRSR [6mer-1-155]
QUANTITY: log10(Binding affinity (RU))
ASSAY_VALUE: 2.10
--
BINDER: KRLFCR [6mer-1-198]
QUANTITY: log10(Binding affinity (RU))
ASSAY_VALUE: 2.17
--
BINDER: REMPKR [6mer-2-871]
QUANTITY: log10(Binding affinity (RU))
ASSAY_VALUE: 1.49
